- System: Nannizzia gypsea
- PROTOCOL NOTES: Minimum inhibitory concentration Microsporum gypseum
- Assay type: functional
RESULT TYPE: MIC (mg/L)
// units = mg/L; emit number, no label

Some solved entries appear below for comparison.
>>> assay_value("O=C(NNc1ccccc1)c1ccc(NC(=S)Nc2ccc(NC(=S)Nc3ccc(C(=O)NNc4ccccc4)cc3)cc2)cc1")
64
>>> assay_value("CC(C)OC(=O)c1ccc(/N=C(\\S)Nc2cccc(/N=C(/S)Nc3ccc(C(=O)OC(C)C)cc3)c2)cc1")
64

// MIC lookup, compound = `O=C(O)c1ccc(/N=C(\S)Nc2cccc(/N=C(/S)Nc3ccc(C(=O)O)cc3)c2)cc1` , result: 64

// MIC lookup, compound = `O=C(NNc1ccccc1)c1ccc(/N=C(\S)Nc2ccc(/N=C(/S)Nc3ccc(C(=O)NNc4ccccc4)c(O)c3)cc2)cc1O` , result: 128

// MIC lookup, compound = `COC(=O)c1ccc(/N=C(\S)Nc2cccc(/N=C(/S)Nc3ccc(C(=O)OC)cc3)c2)cc1` , result: 128

// MIC lookup, compound = `O=C(O)c1ccc(/N=C(\S)Nc2ccc(/N=C(\S)Nc3ccc(C(=O)O)cc3)cc2)cc1` , result: 32

// MIC lookup, compound = `CC(C)OC(=O)c1ccc(/N=C(\S)Nc2cccc(/N=C(/S)Nc3ccc(C(=O)OC(C)C)c(O)c3)c2)cc1O` , result: 32

// MIC lookup, compound = `CC(C)OC(=O)c1ccc(/N=C(\S)Nc2ccc(/N=C(/S)Nc3ccc(C(=O)OC(C)C)c(O)c3)cc2)cc1O` , result: 256

###

- Test system: Trichophyton benhamiae
- PROTOCOL NOTES: Minimum inhibitory concentration against Trichophyton mentagrophytes
- Format: functional, Arthroderma benhamiae
RESULT TYPE: MIC (µg/mL)
// units = µg/mL; emit number, no label

Some solved entries appear below for comparison.
>>> assay_value("O=C(O)c1ccc(N/C(S)=N\\c2ccccc2/N=C(/S)Nc2ccc(C(=O)O)c(O)c2)cc1O")
8
>>> assay_value("COC(=O)c1ccc(/N=C(\\S)Nc2ccc(/N=C(\\S)Nc3ccc(C(=O)OC)cc3)cc2)cc1")
32
>>> assay_value("O=C(O)c1ccc(/N=C(\\S)Nc2cccc(/N=C(/S)Nc3ccc(C(=O)O)cc3)c2)cc1")
64
>>> assay_value("O=C(O)c1ccc(N/C(S)=N\\c2ccccc2/N=C(/S)Nc2ccc(C(=O)O)cc2)cc1")
32

Could you now look at the following compound, please?
// MIC lookup, compound = `O=C(O)c1ccc(/N=C(\S)Nc2ccc(/N=C(\S)Nc3ccc(C(=O)O)cc3)cc2)cc1` , result: 32

###

- Test system: Trichophyton benhamiae
- PROTOCOL NOTES: Minimum inhibitory concentration against Trichophyton mentagrophytes
- Type: functional, Arthroderma benhamiae
RESULT TYPE: MIC (µg/mL)
// units = µg/mL; emit number, no label

Some solved entries appear below for comparison.
>>> assay_value("COC(=O)c1ccc(/N=C(\\S)Nc2cccc(/N=C(/S)Nc3ccc(C(=O)OC)cc3)c2)cc1")
64
>>> assay_value("O=C(NNc1ccccc1)c1ccc(/N=C(\\S)Nc2ccc(/N=C(/S)Nc3ccc(C(=O)NNc4ccccc4)c(O)c3)cc2)cc1O")
32
>>> assay_value("CC(=O)N1CCN(c2ccc(OC[C@H]3CO[C@](Cn4ccnc4)(c4ccc(Cl)cc4Cl)O3)cc2)CC1 [KETOCONAZOLE]")
16
>>> assay_value("CC(C)OC(=O)c1ccc(/N=C(\\S)Nc2cccc(/N=C(/S)Nc3ccc(C(=O)OC(C)C)c(O)c3)c2)cc1O")
16
>>> assay_value("COC(=O)c1ccc(/N=C(\\S)Nc2ccc(/N=C(/S)Nc3ccc(C(=O)OC)c(O)c3)cc2)cc1O")
64
>>> assay_value("CCOC(=O)c1ccc(/N=C(\\S)Nc2ccc(/N=C(\\S)Nc3ccc(C(=O)OCC)cc3)cc2)cc1")
512
>>> assay_value("CC(C)OC(=O)c1ccc(/N=C(\\S)Nc2ccc(/N=C(\\S)Nc3ccc(C(=O)OC(C)C)cc3)cc2)cc1")
64

Could you now look at the following compound, please?
// MIC lookup, compound = `O=C(O)c1ccc(/N=C(\S)Nc2cccc(/N=C(/S)Nc3ccc(C(=O)O)c(O)c3)c2)cc1O` , result: 32
